target: T1, human CD1a expressed on cells (human, UniProt P06126 17-327; P61769 21-119); test: flow cytometry, HEK-293 cells, 3.16 µg/ml antibody
T1 construct: also called HEK - CD1a; C1R - CD1a
MEASUREMENT_LABEL: Fluorescence Intensity Geomean (normalized to background) (fold over background)
# value in fold over background; strip the unit string

>>> result_number("77A (VR11851) (antibody, V domains shown, also called OX77a; antibody 77a) VH: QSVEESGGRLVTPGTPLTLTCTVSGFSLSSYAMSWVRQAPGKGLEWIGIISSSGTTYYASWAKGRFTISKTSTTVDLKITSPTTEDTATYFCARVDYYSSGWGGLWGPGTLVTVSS VL: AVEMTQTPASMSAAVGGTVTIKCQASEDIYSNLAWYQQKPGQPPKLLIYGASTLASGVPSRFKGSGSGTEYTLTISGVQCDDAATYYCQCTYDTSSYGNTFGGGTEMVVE")
23.3
>>> result_number("111 (VR12113) (antibody, V domains shown, also called OX111) VH: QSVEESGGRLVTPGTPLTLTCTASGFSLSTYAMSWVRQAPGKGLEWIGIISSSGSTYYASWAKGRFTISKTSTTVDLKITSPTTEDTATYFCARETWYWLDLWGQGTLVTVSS VL: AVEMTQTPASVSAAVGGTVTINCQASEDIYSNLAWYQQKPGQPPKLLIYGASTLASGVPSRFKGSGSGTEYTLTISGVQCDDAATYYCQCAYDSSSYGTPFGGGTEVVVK")
24.9
>>> result_number("110 (VR12112) (antibody, V domains shown, also called OX110; antibody 110) VH: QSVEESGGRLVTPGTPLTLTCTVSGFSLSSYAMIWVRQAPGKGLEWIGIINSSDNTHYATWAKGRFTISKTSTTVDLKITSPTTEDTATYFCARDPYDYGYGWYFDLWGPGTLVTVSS VL: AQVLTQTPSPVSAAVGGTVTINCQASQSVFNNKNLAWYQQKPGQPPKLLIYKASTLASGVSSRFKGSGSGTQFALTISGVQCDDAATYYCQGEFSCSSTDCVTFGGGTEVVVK")
31.5

Could you now consider this next binder?
Req: Can you share its Fluorescence Intensity Geomean (normalized to background)? I mean this binder: 116 (VR12117) (antibody, V domains shown, also called OX116) VH: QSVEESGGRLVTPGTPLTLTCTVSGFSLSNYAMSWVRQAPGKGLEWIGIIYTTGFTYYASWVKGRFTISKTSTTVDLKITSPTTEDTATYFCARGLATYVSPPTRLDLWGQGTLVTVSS VL: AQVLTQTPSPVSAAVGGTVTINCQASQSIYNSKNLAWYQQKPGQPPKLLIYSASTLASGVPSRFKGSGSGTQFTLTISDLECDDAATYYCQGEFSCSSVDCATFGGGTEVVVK
Resp: 21.9
